Listed next: entries and their corresponding GI50.
system: HCT-15 colon; assay: NCI tumour cell line growth inhibition, 48 h

C/C(=C(\c1ccc(OCCN2CCCCCC2)cc1)c1ccc(OC(=O)c2ccccc2)cc1)c1ccc(Cl)cc1: 1.4 µM
O=C1c2ccccc2-c2c1c1ccccc1c(=O)n2CCCNCCn1c2c(c3ccccc3c1=O)C(=O)c1ccccc1-2: 2.74 µM
CCCCCCCC/C=C/CCCCCCCC1=NC(C)(C)CN1CCO: 1.58 µM
CO[C@H]1CC(O[C@@H]2/C(C)=C/C[C@@H]3C[C@@H](C[C@]4(CC[C@H](C)[C@@H](C5CCCCC5)O4)O3)OC(=O)[C@@H]3C=C(C)/C(=N/O)[C@H]4OC/C(=C\C=C\[C@@H]2C)[C@]43O)O[C@@H](C)C1O (some centres undefined): 0.873 µM
CC(=O)N1N=C(c2ccc(Nc3nc(Nc4ccc(F)cc4)nc(Nc4ccc(F)cc4)n3)cc2)CC1c1ccc(N(C)C)cc1 (centres undefined): 2.41 µM

// query Would you kindly share the measured GI50 for CCOc1ccn(-c2ccc(F)cc2)c(=O)c1C(=O)Nc1ccc(Oc2ccnc(N)c2Cl)c(F)c1 ?
// result 10.6 µM

// query Would you kindly share the measured GI50 for Nc1nc(/C=C\c2ccccc2)nc(N2CCN(c3ccccc3)CC2)n1 ?
// result 16.3 µM

// query Would you kindly share the measured GI50 for O=C(O)C1[O][Sb][O]C(C(=O)O)C1O (centres undefined) ?
// result > 100 µM

// query Would you kindly share the measured GI50 for CCCCCCCCCC[C@H](O)[C@H](O)CC[C@@H](O)[C@H]1CC[C@@H]([C@H]2CC[C@H](CCCCCCC[C@@H](O)CC3=C[C@H](C)OC3=O)O2)O1 ?
// result 23.8 µM
